Data origin: paper PMC10539501

# Target Or Test System: pepsin (Sus scrofa)
# Sequence (P00791 60-385): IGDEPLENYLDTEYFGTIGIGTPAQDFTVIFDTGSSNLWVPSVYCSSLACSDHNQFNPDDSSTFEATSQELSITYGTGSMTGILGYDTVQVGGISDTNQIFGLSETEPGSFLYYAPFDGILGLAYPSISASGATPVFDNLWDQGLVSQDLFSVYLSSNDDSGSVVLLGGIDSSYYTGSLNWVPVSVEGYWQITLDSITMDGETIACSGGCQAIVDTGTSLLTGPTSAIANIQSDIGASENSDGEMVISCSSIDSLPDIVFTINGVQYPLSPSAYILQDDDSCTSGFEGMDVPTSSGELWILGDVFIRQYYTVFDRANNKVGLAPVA
# Test Details: in vitro
# Study Conditions: simulated gastric fluid, pH 1.2
Starred links: 1 amine or outer side, 2 acyl side, 3 side chain; linkers in the order of their positions; H or OH if unused. Non-standard residues stand in square brackets, D forms with d. Residues, ends and D or L forms follow the SMILES beside them. X6 = O=C([C@H](Cc1ccc(O)cc1)NC(=S)[C@H]1CCCN1[*:1])[*:2]; NMeY = CN[C@@H](Cc1ccc(O)cc1)C(=O)O
Property Measured: remaining at 1 h (%)

A. CC(C)C[C@@H]1NC(=O)[C@@H](CC(C)C)NC(=O)[C@H](CC(C)C)NC(=O)[C@H](Cc2ccc(O)cc2)N(C)C(=O)[C@H]2CCCN2C(=O)[C@H](CC(C)C)NC1=O [10j] (cyclo(LL[dP][NMeY]L[dL]))
B. CC(C)C[C@@H]1NC(=O)[C@H](Cc2ccc(O)cc2)NC(=S)[C@H]2CCCN2C(=O)[C@H](CC(C)C)NC(=O)[C@H](CC(C)C)NC(=O)[C@@H](CC(C)C)NC1=O [10d] (cyclo(LL[X6]L[dL]))
Challenge: Sorting by remaining at 1 h in descending order, would A or B appear first? Selection: enter the item's label.
Response given: B

* * *

# Test Details: in vivo
# Study Conditions: male, Wistar, rat, po, 10 mg/kg
Starred links: 1 amine or outer side, 2 acyl side, 3 side chain; linkers in the order of their positions; H or OH if unused. Non-standard residues stand in square brackets, D forms with d. Residues, ends and D or L forms follow the SMILES beside them. X1 = CC(C)C[C@H](NC(=S)[C@H](Cc1ccc(O)cc1)N[*:1])C(=O)[*:2]; X2 = CC(C)C[C@H](NC(=S)[C@@H](CC(C)C)N[*:1])C(=O)[*:2]; NMeL = CN[C@@H](CC(C)C)C(=O)O
Property Measured: Cmax (ng/mL)

[[record]]
compound = "CC(C)C[C@@H]1NC(=O)[C@H](Cc2ccc(O)cc2)NC(=O)[C@H]2CCCN2C(=O)[C@H](CC(C)C)NC(=O)[C@H](CC(C)C)NC(=S)[C@@H](CC(C)C)NC1=O [10a] (cyclo(L[dP]YL[X2]))"
readout_value = 15

[[record]]
compound = "CC(C)C[C@@H]1NC(=O)[C@@H](CC(C)C)NC(=O)[C@H](CC(C)C)NC(=S)[C@H](Cc2ccc(O)cc2)NC(=O)[C@H]2CCCN2C(=O)[C@H](CC(C)C)NC1=O [10e] (cyclo(LL[dP][X1][dL]))"
readout_value = 47.2


P. CC(C)C[C@@H]1NC(=O)[C@H](Cc2ccc(O)cc2)NC(=O)[C@H]2CCCN2C(=O)[C@H](CC(C)C)NC(=O)[C@H](CC(C)C)NC(=O)[C@@H](CC(C)C)NC1=O [compound 10, cyclo(-D-Leu^1-Leu-Leu-D-Pro-Tyr-Leu^6-)] (cyclo(LL[dP]YL[dL]))
Q. CC(C)C[C@@H]1NC(=O)[C@@H](CC(C)C)NC(=O)[C@H](CC(C)C)N(C)C(=O)[C@H](Cc2ccc(O)cc2)NC(=O)[C@H]2CCCN2C(=O)[C@H](CC(C)C)NC1=O [10k] (cyclo(LL[dP]Y[NMeL][dL]))
Challenge: # return whichever of P and Q has the smaller Cmax Respond with the label that goes with your answer.
Response given: P

* * *

# Test Details: in vitro
# Study Conditions: human, microsomes
Starred links: 1 amine or outer side, 2 acyl side, 3 side chain; linkers in the order of their positions; H or OH if unused. Non-standard residues stand in square brackets, D forms with d. Residues, ends and D or L forms follow the SMILES beside them. X1 = CC(C)C[C@H](NC(=S)[C@H](Cc1ccc(O)cc1)N[*:1])C(=O)[*:2]; X6 = O=C([C@H](Cc1ccc(O)cc1)NC(=S)[C@H]1CCCN1[*:1])[*:2]; X2 = CC(C)C[C@H](NC(=S)[C@@H](CC(C)C)N[*:1])C(=O)[*:2]; X3 = CC(C)C[C@H](N[*:1])C(=S)N[C@H](CC(C)C)C(=O)[*:2]; X5 = CC(C)C[C@H](NC(=S)[C@H](CC(C)C)N[*:1])C(=O)[*:2]; X4 = CC(C)C[C@H](N[*:1])C(=S)N1CCC[C@@H]1C(=O)[*:2]
Property Measured: remaining at 5 min (%)

[[record]]
compound = "CC(C)C[C@@H]1NC(=O)[C@H](Cc2ccc(O)cc2)NC(=S)[C@H]2CCCN2C(=O)[C@H](CC(C)C)NC(=O)[C@H](CC(C)C)NC(=O)[C@@H](CC(C)C)NC1=O [10d] (cyclo(LL[X6]L[dL]))"
property_measured = "remaining at 5 min"
readout_value = 96

[[record]]
compound = "CC(C)C[C@@H]1NC(=O)[C@H](Cc2ccc(O)cc2)NC(=O)[C@H]2CCCN2C(=S)[C@H](CC(C)C)NC(=O)[C@H](CC(C)C)NC(=O)[C@@H](CC(C)C)NC1=O [10c] (cyclo(L[dL]L[X4]Y))"
property_measured = "remaining at 5 min"
readout_value = 76

[[record]]
compound = "CC(C)C[C@@H]1NC(=O)[C@H](Cc2ccc(O)cc2)NC(=O)[C@H]2CCCN2C(=O)[C@H](CC(C)C)NC(=S)[C@H](CC(C)C)NC(=O)[C@@H](CC(C)C)NC1=O [10b] (cyclo(L[dL][X5][dP]Y))"
property_measured = "remaining at 5 min"
readout_value = 85

[[record]]
compound = "CC(C)C[C@@H]1NC(=O)[C@@H](CC(C)C)NC(=S)[C@H](CC(C)C)NC(=O)[C@H](Cc2ccc(O)cc2)NC(=O)[C@H]2CCCN2C(=O)[C@H](CC(C)C)NC1=O [10f] (cyclo(LL[dP]Y[X3]))"
property_measured = "remaining at 5 min"
readout_value = 78

[[record]]
compound = "CC(C)C[C@@H]1NC(=O)[C@H](Cc2ccc(O)cc2)NC(=O)[C@H]2CCCN2C(=O)[C@H](CC(C)C)NC(=O)[C@H](CC(C)C)NC(=O)[C@@H](CC(C)C)NC1=O [compound 10, cyclo(-D-Leu^1-Leu-Leu-D-Pro-Tyr-Leu^6-)] (cyclo(LL[dP]YL[dL]))"
property_measured = "remaining at 5 min"
readout_value = 55

[[record]]
compound = "CC(C)C[C@@H]1NC(=O)[C@@H](CC(C)C)NC(=O)[C@H](CC(C)C)NC(=S)[C@H](Cc2ccc(O)cc2)NC(=O)[C@H]2CCCN2C(=O)[C@H](CC(C)C)NC1=O [10e] (cyclo(LL[dP][X1][dL]))"
property_measured = "remaining at 5 min"
readout_value = 97

[[record]]
compound = "CC(C)C[C@@H]1NC(=O)[C@H](Cc2ccc(O)cc2)NC(=O)[C@H]2CCCN2C(=O)[C@H](CC(C)C)NC(=O)[C@H](CC(C)C)NC(=S)[C@@H](CC(C)C)NC1=O [10a] (cyclo(L[dP]YL[X2]))"
property_measured = "remaining at 5 min"
readout_value = 75


* * *

# Test Details: in vitro
# Study Conditions: both, human, plasma
Starred links: 1 amine or outer side, 2 acyl side, 3 side chain; linkers in the order of their positions; H or OH if unused. Non-standard residues stand in square brackets, D forms with d. Residues, ends and D or L forms follow the SMILES beside them. X1 = CC(C)C[C@H](NC(=S)[C@H](Cc1ccc(O)cc1)N[*:1])C(=O)[*:2]; X3 = CC(C)C[C@H](N[*:1])C(=S)N[C@H](CC(C)C)C(=O)[*:2]
Property Measured: remaining at 5 h (%)

[[record]]
molecule = "CC(C)C[C@@H]1NC(=O)[C@H](Cc2ccc(O)cc2)NC(=O)[C@H]2CCCN2C(=O)[C@H](CC(C)C)NC(=O)[C@H](CC(C)C)NC(=O)[C@@H](CC(C)C)NC1=O [compound 10, cyclo(-D-Leu^1-Leu-Leu-D-Pro-Tyr-Leu^6-)] (cyclo(LL[dP]YL[dL]))"
u = "%"
readout_value = 67

[[record]]
molecule = "CC(C)C[C@@H]1NC(=O)[C@@H](CC(C)C)NC(=O)[C@H](CC(C)C)NC(=S)[C@H](Cc2ccc(O)cc2)NC(=O)[C@H]2CCCN2C(=O)[C@H](CC(C)C)NC1=O [10e] (cyclo(LL[dP][X1][dL]))"
u = "%"
readout_value = 84

[[record]]
molecule = "CC(C)C[C@@H]1NC(=O)[C@@H](CC(C)C)NC(=S)[C@H](CC(C)C)NC(=O)[C@H](Cc2ccc(O)cc2)NC(=O)[C@H]2CCCN2C(=O)[C@H](CC(C)C)NC1=O [10f] (cyclo(LL[dP]Y[X3]))"
u = "%"
readout_value = 84


* * *

# Test Details: in vitro
# Study Conditions: pig, simulated intestinal fluid
Starred links: 1 amine or outer side, 2 acyl side, 3 side chain; linkers in the order of their positions; H or OH if unused. Non-standard residues stand in square brackets, D forms with d. Residues, ends and D or L forms follow the SMILES beside them. X1 = CC(C)C[C@H](NC(=S)[C@H](Cc1ccc(O)cc1)N[*:1])C(=O)[*:2]; X6 = O=C([C@H](Cc1ccc(O)cc1)NC(=S)[C@H]1CCCN1[*:1])[*:2]; NMeY = CN[C@@H](Cc1ccc(O)cc1)C(=O)O
Property Measured: half-life (h)

[[record]]
compound = "C[C@@H](O)[C@@H]1NC(=O)[C@H](CCCCN)NC(=O)[C@@H](Cc2c[nH]c3ccccc23)NC(=O)[C@H](Cc2ccccc2)NC(=O)[C@@H]2CCCN2C(=O)[C@H](Cc2ccccc2)NC1=O [compound 13, cyclo(-D-Trp^1-Lys-Thr-Phe-Pro-Phe^6-)] (cyclo(PF[dW]KTF))"
readout_value = 1.8


a. CC(C)C[C@@H]1NC(=O)[C@H](Cc2ccc(O)cc2)NC(=O)[C@H]2CCCN2C(=O)[C@H](CC(C)C)NC(=O)[C@H](CC(C)C)NC(=O)[C@@H](CC(C)C)NC1=O [compound 10, cyclo(-D-Leu^1-Leu-Leu-D-Pro-Tyr-Leu^6-)] (cyclo(LL[dP]YL[dL]))
b. CC(C)C[C@@H]1NC(=O)[C@@H](CC(C)C)NC(=O)[C@H](CC(C)C)NC(=S)[C@H](Cc2ccc(O)cc2)NC(=O)[C@H]2CCCN2C(=O)[C@H](CC(C)C)NC1=O [10e] (cyclo(LL[dP][X1][dL]))
c. CC(C)C[C@@H]1NC(=O)[C@@H](CC(C)C)NC(=O)[C@H](CC(C)C)NC(=O)[C@H](Cc2ccc(O)cc2)N(C)C(=O)[C@H]2CCCN2C(=O)[C@H](CC(C)C)NC1=O [10j] (cyclo(LL[dP][NMeY]L[dL]))
d. CC(C)C[C@@H]1NC(=O)[C@H](Cc2ccc(O)cc2)NC(=S)[C@H]2CCCN2C(=O)[C@H](CC(C)C)NC(=O)[C@H](CC(C)C)NC(=O)[C@@H](CC(C)C)NC1=O [10d] (cyclo(LL[X6]L[dL]))
Challenge: Form: Sort by [half-life] Order [ ascending ] I'd appreciate it if you listed the labels in the requested order.
Response given: a, c, d, b
